All values here come from patent US20250154163A1.

This section presents compounds with their documented IC50 values.
- subject-of-test: human HSD17β13 (stable HEK293T cell line overexpressing human HSD17β13) (Homo sapiens, UniProt Q7Z5P4)
- Sequence (Q7Z5P4 20-300): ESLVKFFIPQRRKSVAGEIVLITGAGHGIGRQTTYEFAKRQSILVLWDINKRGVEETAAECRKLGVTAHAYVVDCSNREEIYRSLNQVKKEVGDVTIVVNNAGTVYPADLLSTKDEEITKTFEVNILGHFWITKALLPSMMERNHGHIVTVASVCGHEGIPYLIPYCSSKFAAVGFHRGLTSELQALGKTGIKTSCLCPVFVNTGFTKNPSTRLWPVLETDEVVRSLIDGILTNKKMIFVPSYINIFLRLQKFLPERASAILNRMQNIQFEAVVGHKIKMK
- test: HSD17β13 inhibitor cell-based screening assay (conversion of estradiol-d2 to estrone-d2 by RF-MS)
- particulars: conversion of estradiol-d2 to estrone-d2 after 24 hours

Recorded IC50, per entry:
COc1ccc(-c2nc3sc4c(O)c(Cl)ccc4c3c(=O)n2Cc2cnc(Cl)s2)c(C2CC2)c1 [Example 191]
< 100 nM
Cn1ncc2cc(C3CC3)c(-c3nc4sc5c(O)c(Cl)ccc5c4c(=O)n3Cc3cnco3)cc21 [Example 194]
500 to 1000 nM
N#Cc1cnc(-c2nc3sc4c(O)c(Cl)ccc4c3c(=O)n2Cc2cc(C(F)(F)F)no2)c(C2CC2)c1 [Example 115]
< 100 nM
O=c1c2c(nc(-c3ccc(F)cc3C3CC3)n1Cc1cnc(C3CC3)o1)sc1c(O)c(Cl)ccc12 [Example 50]
< 100 nM
O=c1c2c(nc(-c3cc(F)c(C(F)F)cc3C3CC3)n1Cc1ccc(C(F)(F)F)nc1)sc1c(O)c(Cl)ccc12 [Example 181]
< 100 nM
O=c1c2c(nc(-c3ccc(C(F)(F)F)cc3C3CC3)n1Cc1cnco1)sc1c(O)c(Cl)ccc12 [Example 135]
< 100 nM
COc1ccc(-c2nc3sc4c(O)c(Cl)ccc4c3c(=O)n2Cc2ccnc(OC)c2)c(C2CC2)c1 [Example 156]
< 100 nM
CCOc1ccc(-c2nc3sc4c(O)c(Cl)ccc4c3c(=O)n2Cc2cnco2)c(C2CC2)c1 [Example 72]
< 100 nM
COc1ccc(-c2nc3sc4c(O)c(Cl)ccc4c3c(=O)n2CCc2cnco2)c(C2CC2)c1 [Example 188]
100 to 500 nM
COc1ccc(-c2nc3sc4c(-c5ncco5)cccc4c3c(=O)n2Cc2cnco2)c(C2CC2)c1 [Example 9]
1000 to 100000 nM

Exam item: Entry O=c1c2c(nc(-c3cc(F)c(C(F)F)cc3C3CC3)n1Cc1cnc(C(F)(F)F)nc1)sc1c(O)c(Cl)ccc12 [Example 176] has what IC50?
Marked response: < 100 nM

Exam item: Requested field: IC50. Item: O=c1c2c(nc(-c3cc(F)c(F)cc3C3CC3)n1Cc1cc(C(F)(F)F)on1)sc1c(O)c(Cl)ccc12 [Example 66]
Marked response: < 100 nM

Exam item: Which IC50 is reported for this compound? COc1ccc(C2=Nc3sc4c(O)c(Cl)ccc4c3C(=O)C2Cc2ccc(=O)[nH]c2)c(C2CC2)c1 (stereo not drawn) [Example 161]
Marked response: < 100 nM

Exam item: # input compound: COc1ccc(-c2nc3sc4c(O)c(Cl)cc(Br)c4c3c(=O)n2Cc2cnco2)c(C2CC2)c1 [Example 222] ; wanted: its IC50
Marked response: 100 to 500 nM

Exam item: What value of measured IC50 is listed for O=c1c2c(nc(-c3ccc(C(F)(F)F)nc3C3CC3)n1Cc1cnco1)sc1c(O)c(Cl)ccc12 [Example 92] ?
Marked response: < 100 nM
